Entry source: patent US20200317744A1

# tested.target: murine IL-2 receptor βγc heterodimer (mIL-2Rβγc) (mouse) (UniProt P16297)
# procedure.text: SPR; mIL-2Rγ immobilised, saturating mIL-2Rβ in solution
Threshold-based label: Kd under 30 nM gives Fulfilled, Kd not under 30 nM gives Not fulfilled.

Exercise: Check if Kd falls below 30 nM for G1_neo2_40_1F_M1 (designed binder) STEKTQLAAEHALRDALMLKHLLNEPNEKLARIITTMQSWQFTGKIDGDGAQELAKEVEELQQEHEVRGIDVEDYASNLKVILLHLA .
Key: Fulfilled

Exercise: Take the binder G2_neo2_40_1F_seq04 (designed binder) TTKKIQLLVEHALLDALMILNLSSESNEKLNRIITTLQSWIFRGEIDPDRARELAKLLEEIREEMRKRGIDTEDYVSNMIVIIRELA and say whether its Kd is less than 30 nM.
Key: Not fulfilled

Exercise: # strict comparison: is reported Kd < 30 nM? input = G1_neo2_40_1F_M2 (designed binder) STKNTQLAAEDALLDALMLRNLLNEPNEKLARIITTMQSWQFTEKIDGDGAQELAKEVEELQQEHEERGIDVEDYASNLKVILLQLA
Key: Not fulfilled

Exercise: Input G2_neo2_40_1F_seq26 (designed binder) TKKKYQLLIEHALLDALMILNLWSESNEKLNRIITTMQSWIFTGTYDPDKAEELEKLAKEIEDEARERGIDTEDYMSNLRVILKELS ; condition: Kd strictly below 30 nM. Does it hold?
Key: Fulfilled

Exercise: Determine whether this binder shows Kd lower than 30 nM (ties excluded): G1_neo2_40_1F_H4 (designed binder) STKKTQLLLEHALLDALHMSRELPEPNEKLNRIITDMQSWIFTGKIDGDGAQDLAKEVEELEQEHEKRGGDVEDYASNLKVILLELA
Key: Not fulfilled
